# Procedure details: XTT cell viability assay of neuronal progenitor cells
# Format: cell-based, mice
# Cond: mouse, 50 nM, read-out: decrease in NPC cell viability
Assay readout: cytotoxicity at 72 h, 50 nM (%)

[
  {
    "Compound structure string": "Cc1cnc(CNC(=O)c2c(=O)c3ccc(N4CCCN(C)CC4)nc3n3c2sc2ccccc23)cn1",
    "Assay readout": "cytotoxicity at 72 h, 50 nM",
    "Measured result": 30
  }
]

###

# Procedure details: XTT cell viability assay of PHA-stimulated mouse splenocytes
# Type: cell-based
# Cond: 500 nM and higher concentrations, read-out: decrease in cell viability of splenocyte cells (maximal)

[
  {
    "Compound structure string": "Cc1cnc(CNC(=O)c2c(=O)c3ccc(N4CCCN(C)CC4)nc3n3c2sc2ccccc23)cn1",
    "cytotoxicity at 72 h": "97 to 100%"
  }
]

###

# Procedure details: XTT cell viability assay of neuronal progenitor cells
# Assay type: cell-based, mice
# Cond: mouse, 100, 250 and 500 nM, read-out: decrease in NPC cell viability
Assay readout: cytotoxicity at 72 h

[
  {
    "Compound structure string": "Cc1cnc(CNC(=O)c2c(=O)c3ccc(N4CCCN(C)CC4)nc3n3c2sc2ccccc23)cn1",
    "Measured result": "~50%"
  }
]

###

# Procedure details: XTT cell viability of PHA-stimulated human PBMCs from healthy subjects
# Format: cell-based
# Cond: PHA 20 μg/ml, read-out: maximal effect on viability of human PBMCs (decrease)

[
  {
    "Compound structure string": "Cc1cnc(CNC(=O)c2c(=O)c3ccc(N4CCCN(C)CC4)nc3n3c2sc2ccccc23)cn1",
    "cytotoxicity at 72 h, 50 nM (%)": 35
  }
]
